measured.on: prostaglandin-A isomerase (PGAI)
protocol.description: Prostaglandin-A isomerase (PGAI) inhibiting action, PGAI preparation from the blood-plasma of pigs
measurement.parameters: read-out: I50% inhibiting levels in final concentrations, PGAI
readout.label: IC50
Include the unit right after the number.

CCOC(=O)c1cnn(-c2ccc(NCCN(CC)CC)nn2)c1N: 44 µM
CCOC(=O)c1cnn(-c2ccc(NCc3ccco3)nn2)c1N: 50 µM
CCOC(=O)c1cnn(-c2ccc(NC3CCCCC3)nn2)c1N: 100 µM

Now for a further molecule.
query: Suppose we examine the molecule Cl.NNc1nncc2ccccc12 [Hydralazine, 1-hydrazinophthalazine hydrochloride, reference compound] ; what IC50 value has been reported?
result: 90 µM
